As shown below, each of these compounds has a reported IC50 value.
tested on: ZR-75 cells; assay: Cell proliferation assay in ZR-75 breast cancer cells (MTT); format: cell-based; conditions: Homo sapiens, ZR75, 240 h, ZR-75, 10 days of culture with analog, read-out: IC50, concentration corresponding to half-maximal reduction in 570 nm absorbance
API: value field is a number in nM; no unit string.

Some solved entries appear below for comparison.
{"compound": "C=C1/C(=C\\C=C2/CCC[C@]3(C)[C@@H](C4(C/C=C\\C(O)(C(F)(F)F)C(F)(F)F)CC4)CC[C@@H]23)C[C@@H](O)C[C@@H]1O [compound 5]", "display.unit": "nM", "IC50": 0.1}
{"compound": "CC(C)(O)C#CCC1([C@H]2CC[C@H]3/C(=C/C=C4C[C@@H](O)C[C@H](O)C4)CCC[C@]23C)CC1 [compound 2]", "display.unit": "nM", "IC50": 0.9}
{"compound": "C[C@]12CCC/C(=C\\C=C3C[C@@H](O)C[C@H](O)C3)[C@@H]1CC[C@@H]2C1(C/C=C\\C(O)(C(F)(F)F)C(F)(F)F)CC1 [compound 6]", "display.unit": "nM", "IC50": 0.1}

Query (compound): C=C1/C(=C\C=C2/CCC[C@]3(C)[C@@H]([C@H](C)CCCC(C)(C)O)CC[C@@H]23)C[C@@H](O)C[C@@H]1O [1,25-di(OH)-cholecalciferol, 1,25-dihydroxy-cholecalciferol, reference compound] ; field requested: IC50
13

Query (compound): C=C1/C(=C\C=C2/CCC[C@]3(C)[C@@H](C4(CC#CC(O)(C(F)(F)F)C(F)(F)F)CC4)CC[C@@H]23)C[C@@H](O)C[C@@H]1O [Cpd #3] ; field requested: IC50
0.01

Query (compound): C[C@]12CCC/C(=C\C=C3C[C@@H](O)C[C@H](O)C3)[C@@H]1CC[C@@H]2C1(CC#CC(O)(C(F)(F)F)C(F)(F)F)CC1 [Cpd #4] ; field requested: IC50
0.15
